Target: T1, TNFR1 (Homo sapiens, UniProt P19438)
T1 chain: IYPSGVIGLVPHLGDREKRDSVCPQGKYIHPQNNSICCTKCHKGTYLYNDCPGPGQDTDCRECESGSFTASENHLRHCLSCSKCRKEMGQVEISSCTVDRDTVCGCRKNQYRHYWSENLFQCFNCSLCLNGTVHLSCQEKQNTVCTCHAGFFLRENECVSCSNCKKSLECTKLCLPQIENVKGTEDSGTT
Assay: yeast display SC50
VALUE KIND: apparent Kd (screen) (nM)

(P) K18D (designed binder) SMEEEVEKAAKEYEKKKDEAIEKHLEKLKAKDKEAAERFLKELEEAAKEYAKDEAKTMSEEEAKRRAKKYKEKVLLSELSEEEQKEIKEAEEKLVRTILKYVEEAAK
(Q) E89H (designed binder) SMEEEVEKAAKEYEKKKKEAIEKHLEKLKAKDKEAAERFLKELEEAAKEYAKDEAKTMSEEEAKRRAKKYKEKVLLSELSEEEQKEIKHAEEKLVRTILKYVEEAAK
Q: I'm curious whether P or Q has the smaller apparent Kd (screen) number. Which is it? Lab log: write the label of the selected item as the result.
Result: P
